Biological target: human CRTH2 receptor (Homo sapiens)
Construct: membranes prepared in house from the purchased cell line
Sequence (Q9Y5Y4 whole entry): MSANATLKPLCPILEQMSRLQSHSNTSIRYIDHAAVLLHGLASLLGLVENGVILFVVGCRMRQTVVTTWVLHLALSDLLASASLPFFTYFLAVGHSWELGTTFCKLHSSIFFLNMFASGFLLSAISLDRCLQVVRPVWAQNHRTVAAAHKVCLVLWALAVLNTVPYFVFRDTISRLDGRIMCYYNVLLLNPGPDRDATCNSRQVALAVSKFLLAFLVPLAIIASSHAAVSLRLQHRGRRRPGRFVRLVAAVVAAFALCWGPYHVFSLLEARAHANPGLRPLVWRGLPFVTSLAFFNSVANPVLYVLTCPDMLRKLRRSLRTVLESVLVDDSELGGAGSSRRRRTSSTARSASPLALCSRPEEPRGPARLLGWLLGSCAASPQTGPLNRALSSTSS
Assay: Human CRTH2 receptor membrane radioligand binding assay (SPA, [3H]-PGD2)
Conditions: displacement of [3H]-PGD2 (1 nM) from CHO-K1-hCRTH2 cell membranes, 3 h room temperature
Experimental: Preparation of Human CRTH2 Receptor Membranes and Radioligand Binding Assay The binding of CRTH2 antagonists is determined using membranes prepared from Chinese hamster ovary cells (CHO-K1 cells) transfected with the human CRTH2 receptor (CHO-K1-hCRTH2 cells, Perkin Elmer, Cat No ES-561-C). To produce cell membranes the CHO-K1-hCRTH2 cells are cultured in suspension in CHO SFMII medium supplemented with 400 μg/ml G418. […]
Provide the reported Ki of each item.
Answers are plain numbers, in nM.

CCc1nn(Cc2ccc(OCc3cc(Cl)cc(Cl)c3)cc2)c(CC)c1CC(=O)O [Example 13.8]
15.5
Cc1nn(Cc2ccc(NC(=O)OCc3ccccc3)cc2Cl)c(C)c1CC(=O)O [Example 3.13]
4.7
Cc1cc(C(F)(F)F)ccc1C(=O)Nc1ccc(Cn2nc(C)c(CC(=O)O)c2C)c(F)c1 [Example 7.16]
3.5

The record that follows has no Ki shown yet.
Field Ki (entry Cc1c(CC(=O)O)cnn1Cc1ccc(NC(=O)c2ccc3ccccc3c2)cc1 [Example 2.55] ) reads 21.6
